Data origin: patent US11149077B2

# Tgt: T1, human insulin receptor (Homo sapiens, UniProt P06213)
# T1 construct: purchased R&D Systems (Minneapolis, Minn.)
# Procedure summary: BIAcore binding to immobilized human insulin receptor
# Assay context: Table 8; percentage of signal for insulin binding at similar concentration
# Description: One liter E. coli growths of selected optimized clones were prepared and the proteins were purified. In brief, 60 ug/mL of IR diluted in acetate 4.5 was coupled/immobilized to a level of 8300 RU and 11.9 ug/mL of VEGF-R2-Fc diluted in acetate 5.0 was immobilized to a level of 9700 RU on flow cells 2 and 3. A blank reference surface was prepared on FC1. […]
Assay readout: % IR Binding at 10 μM (%)
Kindly provide the numeric value in % only, without the unit symbol.

# % IR Binding at 10 μM lookup, item 385A08 (protein) VSDVPRDLEVVAATPTSLLISWSARLKVARYYRITYGETGGNSPVQEFTVPKNVYTATISGLKPGVDYTITVYAVTRFRDYQPISINYRTHHHHHH
0

Request the reported % IR Binding at 10 μM associated with 386F10 (protein) VSDVPRDLEVVAATPTSLLISWSARLKVARYYRITYGETGGNSPVQEFTVPKNVYTATISGLKPGVDYTITVYAVTLLRDYGPISINYRTHHHHHH
3

Look up % IR Binding at 10 μM: 386A03 (protein) VSDVPRDLEVVAATPTSLLISWSARLKVARYYRITYGETGGNSPVQEFTVPKNVYTATISGLKPGVDYTITVYAVTNLRDYGPISINYRTHHHHHH
3

Item under review: 338A06 (protein) VSDVPRDLEVVAATPTSLLISWSARLKVARYYRITYGETGGNSPVQEFTVPKNVYTATISGLKPGVDYTITVYAVTKMRDYRPISINYRT . Reported % IR Binding at 10 μM?
0

Quick one: % IR Binding at 10 μM of 387B01 (protein) VSDVPRDLEVVAATPTSLLISWSARLKVARYYRITYGETGGNSPVQEFTVPKNVYTATISGLKPGVDYTITVYAVTSLRDYGPISINYRTHHHHHH ?
0
